All figures here come from PubChem BioAssay AID1159580.

assay: chemical genetic growth profiling, strain panel (AID 1159580);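 note: tested at 20 µM; growth read once vehicle control cultures reached saturation at 30 °C; 1 = growth at the plate median or of vehicle wells; lower values mean less growth of the strain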; conditions: S. cerevisiae deletion strains, growth OD, locus YDR001C, strain nth1, hits give low values
The campaign covered roughly 5,500 compounds. About 2,000 (36%) were called active. Roughly 18% stayed inconclusive and do not appear here. Some of the results follow.
ATTRIBUTE_MEASURED: normalized growth

> print(dat)
                                   compound  readout.number
1  CCCCCCC(C)OC(=O)COc1ccc(Cl)cc1Cl (centres undefined)            0.99
2      NC(=NCCC[C@H](N)C(=O)O)N[N+](=O)[O-]            1.01
3  COc1ccc(-c2cc(=O)c3c(O)cc(O[C@H]4O[C@H](CO[C@@H]5O[C@@H](C)[C@H](O)[C@@H](O)[C@H]5O)[C@@H](O)[C@H](O)[C@H]4O)cc3o2)cc1           0.998
4  CC1CCC2(OC1)OC1CC3C4CC[C@H]5C[C@@H](O)CC[C@]5(C)C4CC(=O)[C@]3(C)C1C2C (some centres undefined)            1.01

----------
experiment: chemical genetic growth profiling, strain panel (AID 1159580); settings: S. cerevisiae deletion strains, growth OD, locus YPL204W, strain HRR25, hits give low values
In all, about 5,500 compounds went through this assay and about 2,000 (36%) were called active. Not shown: some 18% with an inconclusive outcome. The list shows a part of the results.
ATTRIBUTE_MEASURED: normalized growth

> print(dat)
                              record.smiles  attribute.measured  readout.number
1      FC(F)(F)c1cccc(NC(=S)NN=C2CCCCCC2)c1   normalized growth           0.838
2  O=[N+]([O-])c1cc(Cl)cc([N+](=O)[O-])c1Nc1ccccc1   normalized growth           0.946
3        COCCCNC(=S)N/N=C\c1cc(Cl)cc(Cl)c1O   normalized growth           0.882
4   O=C1Nc2ccccc2/C1=C/c1ccc(C(F)(F)F)cc1Cl   normalized growth           0.916
5  Oc1c(Cl)cc(Cl)cc1C=Nc1ccc(Sc2ccccc2)nc1Sc1ccccc1   normalized growth           0.577
6  O=S(=O)(CS(=O)(=O)Oc1ccc(Cl)c(Cl)c1)Oc1ccc(Cl)c(Cl)c1   normalized growth           0.945

----------
test: chemical genetic growth profiling, strain panel (AID 1159580); conditions: S. cerevisiae deletion strains, growth OD, locus YOR083W, strain WHI5 (second series), hits give low values
The whole screen tested about 5,500 compounds, of which about 2,000 (36%) were called active. Another 18% or so got no clear call; they are omitted. The list shows a part of the results. Where a SMILES comes first, the peptide text is derived from it. The star is where a group is joined. Cbz = O=C(OCc1ccccc1)*
ATTRIBUTE_MEASURED: normalized growth

> print(dat)
                                   compound            result
1  CCN(Cc1ccncc1)C(=O)C(CO)c1ccccc1 (centres undefined)      1 (inactive)
2       O=S(=O)(c1cccc2c(I)cccc12)N1CCCNCC1  0.932 (inactive)
3  CC(C)[C@H](NC(=O)OCc1ccccc1)C(=O)N[C@H](C=O)Cc1ccccc1 (Cbz-Val-Phe-aldehyde)  0.997 (inactive)
4  Nc1nc(Nc2ccccc2)nc2c1ncn2[C@@H]1O[C@H](CO)[C@H](O)C1O (some centres undefined)   1.02 (inactive)

----------
Here, each record is paired with measured normalized growth data.
experiment: chemical genetic growth profiling, strain panel (AID 1159580);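 note: tested at 20 µM; growth read once vehicle control cultures reached saturation at 30 °C; 1 = growth at the plate median or of vehicle wells; lower values mean less growth of the strain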; conditions: S. cerevisiae deletion strains, growth OD, locus YPR141C, strain kar3, hits give low values
The campaign covered roughly 5,500 compounds. About 2,000 (36%) were called active. Roughly 18% stayed inconclusive and do not appear here. Some of the results follow.
ATTRIBUTE_MEASURED: normalized growth

> print(dat)
                                   compound  attribute.measured  readout.number
1  COc1ccc2c3c1OC1C(O)CC=C4C(C2)N(C)CCC431 (stereo not drawn)   normalized growth            1.01
2  NC(=O)c1ncn([C@@H]2O[C@H](CO)[C@@H](O)[C@H]2O)n1   normalized growth           0.989
3  C=C[C@H]1CN2CC[C@H]1C[C@@H]2[C@@H](OC(=O)OCC)c1ccnc2ccc(OC)cc12   normalized growth            1.01
4  COC(=O)C[C@H]1C(C)(C)C2(Cl)O[C@@]34CC2C(=O)[C@]1(C)C3CC[C@]1(C)C4=CC(=O)O[C@H]1c1ccoc1 (stereo partly drawn)   normalized growth           0.997
5                        CCc1cc(C(N)=S)ccn1   normalized growth           0.974
6  CC(C)c1c(O)ccc2c1CCC1C(C)(C)CCC[C@]21C (stereo partly drawn)   normalized growth            1.01
7  OCC(O)C(O)C(O)C(O)C(O)CO (stereo not drawn)   normalized growth           0.976
8      NC(=NCCC[C@H](N)C(=O)O)N[N+](=O)[O-]   normalized growth           0.998

----------
Here, each record is paired with measured normalized growth data.
assay: chemical genetic growth profiling, strain panel (AID 1159580);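 note: tested at 20 µM; growth read once vehicle control cultures reached saturation at 30 °C; 1 = growth at the plate median or of vehicle wells; lower values mean less growth of the strain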; conditions: S. cerevisiae deletion strains, growth OD, locus YML120C, strain ndi1, hits give low values
The whole screen tested about 5,500 compounds, of which about 2,000 (36%) were called active. Roughly 18% stayed inconclusive and do not appear here. The list shows a part of the results.
ATTRIBUTE_MEASURED: normalized growth

> print(dat)
                                   compound  readout.number
1  CCCC(C)(COC(N)=O)COC(=O)NC(C)C (configuration not stated)               1
2  C[C@]12C=CC(=O)C=C1CCC1C2[C@@H](O)C[C@@]2(C)C1CC[C@]2(O)C(=O)COP(=O)(O)O (some centres not stated)            1.01
3  CC(C1OC(C)(C)C(O)C1O)[C@@H]1CC[C@]2(C)C3=CCC4C(C)(C)C(=O)CC[C@]4(C)C3CC[C@@]12C (some centres not stated)           0.995
4  C[C@]12CCC3c4ccc(O)cc4CCC3C1CC[C@@H]2O (some centres not stated)           0.996
5  OC1CC2CCCC(C1)N2Cc1ccccc1 (configuration not stated)            1.02
6  CC(=O)Oc1ccc2c(c1OC(C)=O)OCC1(O)Cc3c(cc(OC(C)=O)c(OC(C)=O)c3OC(C)=O)C21 (configuration not stated)           0.983
7  NS(=O)(=O)c1cc(C2(O)NC(=O)c3ccccc32)ccc1Cl (configuration not stated)           0.983

----------
Here, each record is paired with measured normalized growth data.
assay: chemical genetic growth profiling, strain panel (AID 1159580);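 note: tested at 20 µM; growth read once vehicle control cultures reached saturation at 30 °C; 1 = growth at the plate median or of vehicle wells; lower values mean less growth of the strain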; conditions: S. cerevisiae deletion strains, growth OD, locus YOR136W, strain idh2, hits give low values
Out of some 5,500 compounds screened, about 2,000 (36%) were called active. About 18% were inconclusive and are not listed. This is one part of the list.
ATTRIBUTE_MEASURED: normalized growth

> print(dat)
                                    compound  readout.number
 1                COc1cccc2c(C)cc(=O)[nH]c12           0.951
 2         CCCCCCCCCCCC1=C(O)C(=O)C=C(O)C1=O           0.919
 3  CO[C@@]1(NC(=O)C(C(=O)O)c2ccc(O)cc2)C(=O)N2C(C(=O)O)=C(CSc3nnnn3C)CO[C@@H]21 (some centres not stated)            1.02
 4  CC(=O)OC1CN2CCC1CC2 (configuration not stated)           0.988
 5                 COc1c2ccoc2cc2oc(=O)ccc12           0.888
 6        C=C(C)[C@H]1COc2cc3oc(=O)ccc3cc2O1           0.867
 7  CC(C)(C)NCC(O)c1cc(Cl)c(N)c(Cl)c1 (configuration not stated)           0.991
 8  CC1=CC(=O)C2=C(C)CC[C@@H]3[C@H](OC(=O)[C@H]3C)[C@@H]12           0.971
 9                 COc1cc2occc2c2oc(=O)ccc12           0.957
10  Cc1cc(OC(=O)c2c(C)cc(OC(=O)c3c(C)cc(O)cc3O)cc2O)cc(O)c1C(=O)O           0.982
11      CC(C)(O)[C@@H]1Cc2cc3ccc(=O)oc3cc2O1            1.02
12      CCCCOc1cc(C(=O)NCCN(CC)CC)c2ccccc2n1           0.998
